Hello, the source for this data is PubChem BioAssay (NCI), in case you need it.

# System: RXF 393 renal
# experiment-notes: NCI tumour cell line growth inhibition, 48 h; in the data active = GI50 below about 0.43 µM; inactive = the rest
Labels: active, inactive

| compound | cat |
| --- | --- |
| O=C(CSc1nc2ccccc2nc1-c1ccccc1)Nc1ccc(F)cc1 | inactive |
| O=c1cc(-c2cccc3ccccc23)[nH]c2ncccc12 | inactive |
| CCSc1ncnc2c1ncn2C1OC(CO)C(O)C1O (stereo not given) | inactive |
| O=C(Nc1ccncc1)C(=O)c1cn(S(=O)(=O)c2ccc(F)cc2)c2ccccc12 | inactive |
| COc1ccc(-c2nn(-c3ccc(NC(=O)c4ccc(Cl)c(Cl)c4)cc3)cc2-c2ccncc2)cc1Cl | inactive |
| C=C(C)[C@@H]1CC[C@]2(C)[C@H](CC=C3[C@@H]4CC(C)(C)CC[C@]4(C(N)=O)CC[C@]32C)[C@@]1(C)CCC#N | inactive |
| O=C(N[C@@H](c1ccc(Cl)c(Cl)c1)C1CNC1)c1ccc2cnccc2c1 | active |
| O=C1OCC2=C1C(c1cccc(Br)c1)c1cc3c(cc1N2CCO)CCC3 (stereo not given) | active |
| Nc1nc(/C=C\c2ccc([N+](=O)[O-])s2)nc(N2CCCC2)n1 | inactive |
| Cc1ccc(NC(=O)CC2CC2)cc1-c1ccc(C(=O)NCC2CC2)cc1 | inactive |

* * *

# System: TK-10 renal
# experiment-notes: NCI tumour cell line growth inhibition, 48 h; in the data active = GI50 below about 0.43 µM; inactive = the rest
Labels: active, inactive

| molecule | measured-on | cat |
| --- | --- | --- |
| C#C[C@]1(O)CCC2C3CCc4cc(O)ccc4C3CC[C@@]21C (some centres undefined) | TK-10 renal | inactive |
| COc1c(OC[C@H](O)CN2CCOCC2)ccc2c3n(c(=NC(=O)c4cccnc4C)nc12)CCN3 | TK-10 renal | active |
| O=C(Nc1ccncc1)C(=O)c1cn(S(=O)(=O)c2ccc(F)cc2)c2ccccc12 | TK-10 renal | inactive |
| COc1cccc2c1C(=O)c1c(O)c3c(c(O)c1C2=O)C[C@](O)(C(=O)CO)C[C@H]3O[C@@H]1C[C@@H](NC(=O)CCCCCN(C)C2(c3ccc(F)cc3)CC3CCC2C3)[C@H](O)[C@@H](C)O1 (some centres undefined) | TK-10 renal | inactive |
| O=C(N[C@@H](c1ccc(Cl)c(Cl)c1)C1CNC1)c1ccc2cnccc2c1 | TK-10 renal | active |
| COc1cc2c(cc1OCCCNC(=O)c1cccc3c(=O)c4ccccc4[nH]c13)N=C[C@@H]1CCCN1C2=O | TK-10 renal | active |
| COc1ccc(/C=C2/N=C(c3ccccc3)N(c3c(C)n(C)n(-c4ccccc4)c3=O)C2=O)cc1OC | TK-10 renal | inactive |
| O=C1OCC2=C1C(c1cccc(Br)c1)c1cc3c(cc1N2CCO)CCC3 (centres undefined) | TK-10 renal | inactive |
| COc1ccc(C(=O)/C=C/c2cc(-c3cc(OC)c(OC)c(OC)c3)n[nH]2)cc1OC | TK-10 renal | inactive |
| CC(C)Oc1ccc2cc(-c3nn(CC4CCNCC4)c4ncnc(N)c34)ccc2c1 | TK-10 renal | inactive |
| CC[C@H]1[C@@H]2C=C[C@@H]3[C@H]4C/C=C\C(=O)NCCC[C@@H]5NC(=O)/C(=C(O)/C=C/[C@@H]4C[C@@H]3[C@H]2C[C@H]1C)C5=O | TK-10 renal | inactive |
| COc1cc2c3c(n(C)c(=O)c2cc1OC)-c1cc2c(cc1/C3=C\CN)OCO2 | TK-10 renal | inactive |
| CO/N=C(\COc1ccc2c(c1)oc(=O)c1cc(OC)ccc12)c1ccc(OC)cc1 | TK-10 renal | inactive |
| COc1ccc2c(c1)C(=O)c1c-2c(N2CCN(C(=O)CNCCNCCO)CC2)nc2ccccc12 | TK-10 renal | inactive |
